Origin of measurements: ChEMBL document CHEMBL1201862

# Tested on: UACC-62
# assay details: NCI tumour cell line growth inhibition, 48 h
Active and inactive are the calls of the source. No stated cut-off is given here; in the data, active = GI50 up to about 1.1 µM and inactive = higher.
Please answer using one outcome listed in 1 = active, -1 = inactive

For orientation, consider the following solved cases.
Asked: Outcome logged for COC(=O)C(CC(C)C)NC(=O)C(NC(=O)c1ccc(-c2ccc(Cl)cc2Cl)o1)C(C)C (stereo not given) in this assay:
Given back: -1

Asked: Outcome logged for CC(N/N=C(\S)N1CCN(c2ccccn2)CC1)c1nccc2ccccc12 (stereo not given) in this assay:
Given back: 1

Asked: Outcome logged for "O=S1(=O)OCCCOS(=O)(=O)C1(Br)Br" in this assay:
Given back: -1

Asked: Outcome logged for CC1CSc2nc3nc(S)nc-3c(O)n2C1 (stereo not given) in this assay:
Given back: -1

Asked: Outcome logged for "O=C1C(c2ccc([N+](=O)[O-])cc2)=[N+]([O-])c2ccccc21" in this assay:
Given back: -1

Asked: Outcome logged for "O=C1c2ccccc2-c2cccc3ccc(Cc4ccccc4)c1c23" in this assay:
Given back: -1

Asked: Outcome logged for COc1ccc(C2C3=C(COC3=O)OC(C)(C)Oc3cc4c(cc32)OCO4)cc1 (stereo not given) in this assay:
Given back: -1

Asked: Outcome logged for "COCc1cc2c(cc1/C(=C/[N+](=O)[O-])CS(=O)(=O)c1ccccc1)OCO2" in this assay:
Given back: -1

Continuing:
Asked: Outcome logged for "Cc1ccc(C(=O)/C=C/c2cccc([N+](=O)[O-])c2)cc1" in this assay:
Given back: -1

Asked: Outcome logged for "Cn1c(N/N=C/c2ccccc2)nc(-c2ccc([N+](=O)[O-])cc2)c(C#N)c1=O" in this assay:
Given back: -1
